Where do the numbers come from? From patent US12540141B2.

target: SARS-CoV-2 3CL-protease (Severe acute respiratory syndrome coronavirus 2)
endpoint: IC50

Some molecules with recorded IC50:
> print(dat)
                                 cpd.smiles  endpoint  assay.result
1  CC(C)C[C@@H](C(=O)N1C[C@]2(C[C@H]1C#N)C(=O)Nc1ccccc12)N(C)C(=O)c1cc(F)ccn1      IC50   0.1 to 1 µM
2  C[C@@H](OC(=O)N[C@@H](CC(C)(C)C)C(=O)N1C[C@]2(C[C@H]1C#N)C(=O)Nc1ccc(Cl)cc12)c1ccc(F)cc1      IC50      < 0.1 µM
3  CC(C)(C)C[C@H](NC(=O)c1cc2c(F)cc(F)cc2[nH]1)C(=O)N1C[C@]2(C[C@H]1C#N)C(=O)Nc1ccc(Cl)cc12      IC50      < 0.1 µM

Find the measured IC50 of COc1cc(C(=O)N(C)[C@@H](CC(C)C)C(=O)N2C[C@]3(C[C@H]2C#N)C(=O)Nc2ccccc23)cc2cn(C3CCC3)nc12 and report it.
< 0.1 µM

Provide only the value of recorded IC50 for CC(C)C[C@@H](C(=O)N1C[C@]2(C[C@H]1C#N)C(=O)Nc1ccccc12)N(C)C(=O)c1ccc2nc(-c3ccccc3)ccc2c1
0.1 to 1 µM

Return the recorded IC50 value; entry: CC(C)(C)C[C@H](NC(=O)c1ccc2ncc(C3CC3)cc2c1)C(=O)N1C[C@]2(C[C@H]1C#N)C(=O)Nc1ccccc12
< 0.1 µM

====

molecular target: SARS-CoV-2 3CL-protease (Severe acute respiratory syndrome coronavirus 2)
pIC50: −log10 of the molar value.
Measured pIC50 of individual entries

Reference set, count: 2
molecule	endpoint	assay_result
[2H]C([2H])([2H])N(C(=O)c1cc(OC(F)(F)F)c2ncccc2c1)[C@@H](CC(C)(C)C)C(=O)N1C[C@]2(C[C@H]1C#N)C(=O)Nc1ccccc12 [Example 382]	pIC50	> 7.00
CC(C)C[C@@H](C(=O)N1C[C@]2(C[C@H]1C#N)C(=O)Nc1ccccc12)N(C)C(=O)c1cc2ccc(Cl)c(Cl)c2[nH]1 [Example 334]	pIC50	> 7.00

Quote SARS-CoV-2 3CL-protease (Severe acute respiratory syndrome coronavirus 2) pIC50 for entry CC(C)(C)C[C@H](NC(=O)c1cnn(-c2ccc(C(F)(F)F)cc2)c1)C(=O)N1C[C@]2(C[C@H]1C#N)C(=O)Nc1ccccc12 [Example 145] .
> 7.00

====

target: SARS-CoV-2 3CL-protease (Severe acute respiratory syndrome coronavirus 2, UniProt P0DTD1)
endpoint: IC50

> print(dat)
                                 cpd.smiles                            assayed.target  endpoint  assay.result
1  CC(C)C[C@@H](C(=O)N1C[C@]2(C[C@H]1C#N)C(=O)Nc1ccccc12)N(C)C(=O)c1cn(-c2cccc(Cl)c2)nn1  SARS-CoV-2 3CL-protease (Severe acute respiratory syndrome coronavirus 2, UniProt P0DTD1)      IC50      < 100 nM
2  CN(C(=O)c1cnc(C(C)(C)C)[nH]1)[C@@H](CC1CC1)C(=O)N1C[C@]2(C[C@H]1C#N)C(=O)Nc1ccccc12  SARS-CoV-2 3CL-protease (Severe acute respiratory syndrome coronavirus 2, UniProt P0DTD1)      IC50      < 100 nM
3  CC(C)C[C@@H](C(=O)N1C[C@]2(C[C@H]1C#N)C(=O)Nc1ccccc12)N(C)C(=O)CCc1ccccc1  SARS-CoV-2 3CL-protease (Severe acute respiratory syndrome coronavirus 2, UniProt P0DTD1)      IC50      < 100 nM
4  CC(C)C[C@@H](C(=O)N1C[C@]2(C[C@H]1C#N)C(=O)Nc1ccccc12)N(C)C(=O)c1ccc2cnccc2c1  SARS-CoV-2 3CL-protease (Severe acute respiratory syndrome coronavirus 2, UniProt P0DTD1)      IC50      < 100 nM
5  CC(C)C[C@@H](C(=O)N1C[C@]2(C[C@H]1C#N)C(=O)Nc1ccc(N=[N+]=[N-])cc12)N(C)C(=O)c1cc2c(F)cc(F)cc2[nH]1  SARS-CoV-2 3CL-protease (Severe acute respiratory syndrome coronavirus 2, UniProt P0DTD1)      IC50      < 100 nM

Name the value of IC50 reported for CC(C)C[C@@H](C(=O)N1C[C@]2(C[C@H]1C#N)C(=O)Nc1ccccc12)N(C)C(=O)c1ccc2cccnc2c1 when tested on SARS-CoV-2 3CL-protease (Severe acute respiratory syndrome coronavirus 2, UniProt P0DTD1).
100 to 1000 nM
